Can you tell me Relative activity (%) for the items I'm about to list?
- System: GH16B β-agarase
- assay-details: Agarase activity assay (DNS method): effects of metal ions, reducing agent and EDTA on enzymatic activity
- Format: biochemical, Cellvibrio sp. KY-GH-1
- assay-conditions: 0.5 mM metal ion/chemical; relative to untreated control; mean ± SD (n = 3)

Your task in this section: give Relative activity (%) for each listed record.
1. O=S(=O)([O-])[O-].[Cu+2]
2. [Ca+2].[Cl-].[Cl-]
3. [Cl-].[K+]
4. [Cl-].[Cl-].[Mg+2]

**A:**
1. 103 (±0.25) %
2. 96 (±1.80) %
3. 103 (±1.20) %
4. 94 (±2.80) %

Your task in this section: give Relative activity (%) for each listed record.
1. [Cl][Mn][Cl]
2. O=C(O)CCP(CCC(=O)O)CCC(=O)O [TCEP, tris(2-carboxyethyl)phosphine, reference compound]

**A:**
1: 125 (±1.40) %; 2: 100 (±1.55) %
